# Test System: MAP kinase-activated protein kinase 2 (Homo sapiens) (UniProt P49137)
# Sequence (P49137 whole entry, looked up): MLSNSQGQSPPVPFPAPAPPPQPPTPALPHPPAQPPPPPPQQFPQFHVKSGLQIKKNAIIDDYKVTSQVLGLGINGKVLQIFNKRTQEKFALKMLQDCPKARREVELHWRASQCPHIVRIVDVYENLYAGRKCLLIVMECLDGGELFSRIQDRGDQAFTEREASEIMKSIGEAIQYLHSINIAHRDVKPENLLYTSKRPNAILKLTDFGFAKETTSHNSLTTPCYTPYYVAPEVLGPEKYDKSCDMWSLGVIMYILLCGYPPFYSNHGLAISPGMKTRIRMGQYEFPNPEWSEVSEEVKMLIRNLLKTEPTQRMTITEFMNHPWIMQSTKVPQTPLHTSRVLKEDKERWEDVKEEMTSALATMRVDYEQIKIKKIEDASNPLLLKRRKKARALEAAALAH
# Test Details: Inhibition of His-tagged human MAPKAPK2 expressed in Escherichia coli at 10 uM after 1 hr by Z'-LYTE assay relative to control
Respond with Met for inhibition values of 90% and above, Not met for values below.

# Smiles Representation, Test System, Category
measured = [
    ("O=C(OC[C@H]1O[C@@H](n2cnc3c(=O)[nH]cnc32)[C@H](O)[C@@H]1O)c1ccc[nH]1", "MAP kinase-activated protein kinase 2 (Homo sapiens) (UniProt P49137)", "Not met"),
    ("Nc1nc2c(ncn2[C@@H]2O[C@H](COC(=O)c3cc[nH]c3)[C@@H](O)[C@H]2O)c(=O)[nH]1", "MAP kinase-activated protein kinase 2 (Homo sapiens) (UniProt P49137)", "Not met"),
    ("Nc1ncnc2c1ncn2[C@@H]1O[C@H](COC(=O)c2cc[nH]c2)[C@@H](O)[C@H]1O", "MAP kinase-activated protein kinase 2 (Homo sapiens) (UniProt P49137)", "Not met"),
]

Field: next molecule
stdin: Does inhibition meet or surpass 90% for "Nc1ncnc2c1ncn2[C@@H]1O[C@H](COC(=O)c2ccc[nH]2)[C@@H](O)[C@H]1O" ?
stdout: Met

Source: ChEMBL document CHEMBL4602660
